assay explanation: qHTS assay to identify small molecule antagonists of the estrogen receptor alpha (ER-alpha) signaling pathway using the BG1 cell line - cell viability counter screen (AID 743081);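 note: compound given together with 17beta-estradiol as the ER stimulus; nearly all actives have a fitted effect of over 45% in size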
measurement context: BG1Luc4E2 viability, CellTiter-Fluor, 22 h; series mostly up to 70.3 µM
Inconclusive results are not listed. Active and inactive are the calls of the source. Calls come from the whole dose curve; as a rule, active = well fitted cell-killing curve with a large enough effect in the repeat runs; inconclusive = weak or mixed curves, or effect the other way; inactive = flat fitted curve, though single readings scatter.
Permitted responses: y = active, n = inactive

Example results:
COc1ccc(/C(=C/C(=O)N2CCOCC2)c2ccc(Cl)cc2)cc1OC    n
COP(=O)(OC)SCn1c(=O)oc2cc(Cl)cnc21    n
CCCCCCCCCC[N+](C)(C)CCCCCCCCCC    n

We now examine a further compound.
Request: What is the recorded call for this compound in the test? `CCc1nn(C)c(C(=O)NCc2ccc(C(C)(C)C)cc2)c1Cl`
Result: y

---

assay explanation: qHTS RealTime-Glo MT Cell Viability Assay in HEK293 cells - 16 hour (AID 1224872); note: nearly all actives have a fitted effect of over 50% in size
measurement context: RealTime-Glo luminescence; series mostly up to 76.8 µM
Records with an inconclusive call do not appear. Activity calls are given as the source filed them. The call rests on the fitted dose curve; in most records, active means well fitted cell-killing curve with a large enough effect in the repeat runs; inconclusive means weak or mixed curves, or effect the other way; inactive means flat fitted curve, though single readings scatter.
Permitted responses: T for active, F for inactive

Request: What is the recorded call for this compound in the test? CCCCCCCCCCCCCN1CC(C)OC(C)C1 (stereo not drawn)
Result: F

Request: What is the recorded call for this compound in the test? `O=[N+]([O-])c1c2ccccc2cc2ccccc12`
Result: F

Request: What is the recorded call for this compound in the test? `CC(=O)c1ccc(-c2ccccc2)cc1`
Result: F

Request: What is the recorded call for this compound in the test? `BrC(Br)C(Br)(Br)Br`
Result: T

Request: What is the recorded call for this compound in the test? `CCCCCCCCCCCCBr`
Result: F

Request: What is the recorded call for this compound in the test? `ClCCN1CCOCC1`
Result: F

Request: What is the recorded call for this compound in the test? `CCCCCCCCCC[N+](C)(C)CCCCCCCCCC`
Result: T

Request: What is the recorded call for this compound in the test? `O=C(CCCN1CCC2(CC1)C(=O)NCN2c1ccccc1)c1ccc(F)cc1`
Result: T

---

assay explanation: qHTS assay to identify small molecule agonists of H2AX - cell viability counter screen (AID 1224847); note: nearly all actives have a fitted effect of over 30% in size
measurement context: CHO-K1 viability, CellTiter-Glo luminescence, 3 h; series mostly up to 154 µM
Inconclusive results are not listed. Activity calls are given as the source filed them. Calls come from the whole dose curve.
Permitted responses: True for active, False for inactive

Example results:
[Cl][Sn]([c]1ccccc1)([c]1ccccc1)[c]1ccccc1    True
Clc1ccc(C(Cl)(Cl)Cl)c(Cl)c1    False
[CH3][Hg][Cl]    True
CC(=[OH+])/C=C(/C)[O-].CC(=[OH+])/C=C(\C)[O-].CC(=[OH+])/C=C(\C)[O-].[Fe]    False
SCc1ccco1    False

We now examine a further compound.
Request: What is the recorded call for this compound in the test? `C[C@@H]1CC[C@@]2(OC1)O[C@H]1[C@@H](O)[C@H]3[C@@H]4CC[C@H]5C[C@@H](O[C@@H]6O[C@H](CO)[C@H](O[C@@H]7O[C@H](CO)[C@@H](O)[C@H](O[C@@H]8OC[C@@H](O)[C@H](O)[C@H]8O)[C@H]7O[C@@H]7O[C@H](CO)[C@@H](O)[C@H](O[C@@H]8O[C@H](CO)[C@@H](O)[C@H](O)[C@H]8O)[C@H]7O)[C@H](O)[C@H]6O)[C@H](O)C[C@]5(C)[C@H]4CC[C@]3(C)[C@H]1[C@@H]2C`
Result: True

---

assay explanation: qHTS assay to identify small molecule antagonists of the estrogen related receptor signaling pathway with the pleiotropic PPARgamma coactivator (PGC) from Tox21 10K library (AID 1224841); note: actives are mostly falling curves and most rising ones were filed inactive; nearly all actives have a fitted effect of over 50% in size
measurement context: PGC/ERR reporter cell line, ONE-Glo luciferase, 18 h; series mostly up to 92.4 µM
Results filed as inconclusive are left out. Calls of active or inactive are those of the source. The rule behind the calls is not given here.
Permitted responses: t = active, f = inactive

Example results:
CCOP(=S)(OCC)OC(Cl)C(Cl)(Cl)Cl (stereo unspecified)    f
CCCCCCCCCCCCCCCCCCn1cc[n+](C)c1    t
COC12CC[C@@]3(C[C@@H]1C(C)(O)C(C)(C)C)[C@H]1Cc4ccc(O)c5c4[C@@]3(CCN1CC1CC1)[C@H]2O5 (stereo partly specified)    t
CSCCCN=C=S    f
O=C(Nc1ccc2[nH]ccc2c1)c1cc2cc(F)ccc2n1Cc1cccc(F)c1    f

Request: What is the recorded call for this compound in the test? O=c1c(C2CC(c3ccc(-c4ccc(Br)cc4)cc3)Cc3ccccc32)c(O)sc2ccccc12 (stereo unspecified)
Result: t

Request: What is the recorded call for this compound in the test? `N#CCc1ccc(Cl)cc1`
Result: f

Request: What is the recorded call for this compound in the test? CCSC(C)CC1CC(=O)C(/C(CC)=N/OC/C=C/Cl)=C(O)C1 (stereo unspecified)
Result: t

Request: What is the recorded call for this compound in the test? `CCc1ccccc1C`
Result: f

Request: What is the recorded call for this compound in the test? `CC[C@H](C)[C@H]1O[C@]2(C=C[C@@H]1C)C[C@@H]1C[C@@H](C/C=C(\C)[C@@H](O[C@H]3C[C@H](OC)[C@@H](O[C@H]4C[C@H](OC)[C@@H](O)[C@H](C)O4)[C@H](C)O3)[C@@H](C)/C=C/C=C3\CO[C@@H]4[C@H](O)C(C)=C[C@@H](C(=O)O1)[C@]34O)O2`
Result: t

Request: What is the recorded call for this compound in the test? `O=C(CCl)C(Cl)Cl`
Result: t

---

assay explanation: qHTS assay to identify small molecule antagonists of the constitutive androstane receptor (CAR) signaling pathway - cell viability counter screen (AID 1224837); note: nearly all actives have a fitted effect of over 45% in size
measurement context: HepG2-CYP2B6-hCAR viability, CellTiter-Fluor, 23 h, co-treated with 50 nM CITCO; series mostly up to 92.4 µM
Results filed as inconclusive are left out. Activity calls are given as the source filed them. Calls follow the shape of the dose curve; as a rule, active = well fitted cell-killing curve with a large enough effect in the repeat runs; inconclusive = weak or mixed curves, or effect the other way; inactive = flat fitted curve, though single readings scatter.
Permitted responses: 1 = active, 0 = inactive

CCOCCOC(C)=O    0
CC(Cl)CN(C)C (stereo not given)    0
ClC1=C(Cl)[C@]2(Cl)[C@@H]3[C@@H](Cl)[C@H](Cl)C[C@@H]3[C@@]1(Cl)C2(Cl)Cl    0
COC[C@H](C)N(C(=O)CCl)c1c(C)csc1C    0
Oc1ccc(I)cc1    0

Request: What is the recorded call for this compound in the test? `CCOC(=O)C1(c2ccccc2)CCN(CCC(C#N)(c2ccccc2)c2ccccc2)CC1`
Result: 0

Request: What is the recorded call for this compound in the test? `CC[C@H](C)[C@H]1O[C@]2(C=C[C@@H]1C)C[C@@H]1C[C@@H](C/C=C(\C)[C@@H](O[C@H]3C[C@H](OC)[C@@H](O[C@H]4C[C@H](OC)[C@@H](O)[C@H](C)O4)[C@H](C)O3)[C@@H](C)/C=C/C=C3\CO[C@@H]4[C@H](O)C(C)=C[C@@H](C(=O)O1)[C@]34O)O2`
Result: 1

---

assay explanation: qHTS assay to identify small molecule agonists of the farnesoid-X-receptor (FXR) signaling pathway - cell viability counter screen (AID 743218); note: nearly all actives have a fitted effect of over 45% in size
measurement context: FXR-bla HEK293T viability, CellTiter-Glo luminescence, 16 h; series mostly up to 62.6 µM
Records with an inconclusive call do not appear. Calls of active or inactive are those of the source. Calls come from the whole dose curve; as a rule, active = well fitted cell-killing curve with a large enough effect in the repeat runs; inconclusive = weak or mixed curves, or effect the other way; inactive = no such curve, though single readings can be large or run the other way.
Permitted responses: 1 (active), -1 (inactive)

Example results:
Clc1ccc(C(c2ccccc2Cl)C(Cl)(Cl)Cl)cc1 (stereo not drawn)    1
CC1(C)CN=C(NN=C(/C=C/c2ccc(C(F)(F)F)cc2)/C=C/c2ccc(C(F)(F)F)cc2)NC1    1
CC(=O)[O-].[Tl+]    -1
N#CC(Cl)Cl    -1
CCOP(=O)(NC(C)C)Oc1ccc(SC)c(C)c1 (stereo not drawn)    -1

Request: What is the recorded call for this compound in the test? `Cc1cc(C)cc(OP(=O)(Oc2cc(C)cc(C)c2)Oc2cc(C)cc(C)c2)c1`
Result: -1

Request: What is the recorded call for this compound in the test? `CN(C)C(=S)[S-].CN(C)C(=S)[S-].[Cu+2]`
Result: 1

Request: What is the recorded call for this compound in the test? `CN(C)CCc1c[nH]c2cccc(O)c12`
Result: -1

Request: What is the recorded call for this compound in the test? C[C@H]1CC[C@@H]2[C@@H](C)[C@H]3[C@H](C[C@H]4[C@@H]5CC=C6CC(O[C@@H]7O[C@H](CO)[C@H](O)[C@H](O[C@@H]8O[C@H](CO)[C@@H](O)[C@H](O)[C@H]8O)[C@H]7O[C@H]7O[C@@H](C)[C@H](O)[C@@H](O)[C@H]7O)CC[C@]6(C)[C@H]5CC[C@]34C)N2C1 (stereo partly drawn)
Result: 1

Request: What is the recorded call for this compound in the test? `Clc1ccc(C(Cl)(Cl)Cl)c(Cl)c1`
Result: -1

Request: What is the recorded call for this compound in the test? `O=[N+]([O-])c1c2ccccc2cc2ccccc12`
Result: -1

Request: What is the recorded call for this compound in the test? `CCCCOCN(C(=O)CCl)c1c(CC)cccc1CC`
Result: -1

Request: What is the recorded call for this compound in the test? `O=C(CCl)Nc1ccccc1`
Result: -1

Request: What is the recorded call for this compound in the test? `CC(=O)Nc1ccc2c(c1)Cc1ccccc1-2`
Result: -1

Request: What is the recorded call for this compound in the test? C1CCC2CCCCC2C1 (stereo not drawn)
Result: -1

Request: What is the recorded call for this compound in the test? `ClC1=C(Cl)[C@]2(Cl)[C@H]3[C@H]([C@H]4C=C[C@H]3C4)[C@@]1(Cl)C2(Cl)Cl`
Result: -1

Request: What is the recorded call for this compound in the test? CCCN(CC)CC1COC2(CCC(C(C)(C)C)CC2)O1 (stereo not drawn)
Result: -1

Request: What is the recorded call for this compound in the test? `Cn1cc(C2=C(c3cn(C4CCN(Cc5ccccn5)CC4)c4ccccc34)C(=O)NC2=O)c2ccccc21`
Result: 1
